Attribution: patent US9878999B2

- target-desc: CT-L activity of purified 20S proteasome (Homo sapiens, UniProt P20618+P28074)
- assay: in vitro CT-L activity of purified 20S proteasome
- Format: biochemical
- condition-label: Table 5, @ 10 μM; read-out: Screening Results (% Inhibition @ 10 μM) Chymotrypsin-like
property-name: inhibition at 10 µM (%)

CCCc1ccc(OCC(=O)N(Cc2nc(-c3cccnc3)no2)C(C)C)cc1 [drawing 157] :: 92.3
CC(C)N(Cc1nc(-c2ccccc2)no1)C(=O)CCl :: -53
Cc1ccc(OCC(=O)N(Cc2nc(-c3ccc(C)cc3)no2)C(C)C)cc1 [drawing 108] :: 73

I. Cc1ccc(OC(C)C(=O)N(Cc2nc(-c3ccccc3)no2)C(C)C)cc1 (centres unmarked)
II. O=C(COc1ccc(C(F)(F)F)cc1)N(Cc1nc(-c2ccccc2)no1)C1CC1 [drawing 135]
Which shows the larger inhibition at 10 µM value: I or II ? Please indicate the selected item by its label.
I
